Source of measurements: the supplement of paper PMC7214452

Could you please report measured normalized area under the dose-response curve for the items listed next?
- Test system: MM1.S (cancer type: MM)
- assaySummary: normalized area under the dose-response curve (viability relative to DMSO control) (fraction); higher = less sensitive (more viable cells)
- setupConditions: exposure time not given
Counter-ions that a name gives are not always drawn.
Hey, just send me the number, nothing else.

So, CC(C)(C)c1nc(-c2cccc(NS(=O)(=O)c3c(F)cccc3F)c2F)c(-c2ccnc(N)n2)s1 [Dabrafenib mesylate] ? Its normalized area under the dose-response curve was 0.9

So, CO[C@H]1C[C@@H]2CC[C@@H](C)[C@@](O)(O2)C(=O)C(=O)N2CCCC[C@H]2C(=O)O[C@H]([C@H](C)C[C@@H]2CC[C@@H](OC(=O)C(C)(CO)CO)[C@H](OC)C2)CC(=O)[C@H](C)/C=C(\C)[C@@H](O)[C@@H](OC)C(=O)[C@H](C)C[C@H](C)/C=C/C=C/C=C/1C ? Its normalized area under the dose-response curve was 0.63
